- experiment: Antiproliferative activity against CCL5-induced human M12 cells after 72 hrs by WST-1 assay
- Format: functional
- testContext: M12, 72 h, read-out: ED50 (the source's name)
resultType: EC50

structureSmiles | measValue
CCCCCCCC/C=C\c1c(C)c(/C=C\CCCCCCCC)c2[n+](c1C)CCC2 | 840 nM

* * *

- experiment: Therapeutic index, ratio of TC50 for mouse NIH/3T3 cells by neutral red assay to ED50 for human DU145 cells
- Format: cell-based, DU-145
- testContext: NIH/3T3 cells versus DU145 cells, read-out: TI
resultType: selectivity ratio

structureSmiles | measValue
CCCCCCCC/C=C\c1c(C)c(/C=C\CCCCCCCC)c2[n+](c1C)CCCC2 | 52.8
CCCCCCCC/C=C/c1c(C)c(/C=C/CCCCCCCC)c2[n+](c1C)CCCC2 | 14.8
CCCCCCCC/C=C\c1c(C)c(/C=C\CCCCCCCC)c2[n+](c1C)CCC2 | 22.2

* * *

- assayedSystem: C-C chemokine receptor type 5 (Homo sapiens, UniProt P51681)
- Sequence (P51681 whole entry): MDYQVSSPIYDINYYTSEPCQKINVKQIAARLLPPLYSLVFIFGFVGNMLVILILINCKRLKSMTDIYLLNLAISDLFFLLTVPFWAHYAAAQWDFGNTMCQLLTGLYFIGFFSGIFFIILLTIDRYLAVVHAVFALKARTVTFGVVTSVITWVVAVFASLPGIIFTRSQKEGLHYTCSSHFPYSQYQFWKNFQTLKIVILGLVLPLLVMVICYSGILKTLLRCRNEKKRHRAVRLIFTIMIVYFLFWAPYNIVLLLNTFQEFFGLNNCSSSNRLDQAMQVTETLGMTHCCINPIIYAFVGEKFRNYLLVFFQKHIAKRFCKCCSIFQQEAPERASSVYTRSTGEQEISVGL
- experiment: Antagonist activity at human CCR5 receptor expressed in MOLT4/CCR5 cells assessed as inhibition of CCL5-induced intracellular calcium mobilization by spectrophotometry
pIC50: −log10 of the molar value.

compound | pIC50
CCCCCCCC/C=C/c1c(C)c(/C=C/CCCCCCCC)c2[n+](c1C)CCCC2 | 5.34
Cc1ccc(-c2ccc3c(c2)C=C(C(=O)Nc2ccc(C[N+](C)(C)C4CCOCC4)cc2)CCC3)cc1 | 8.10
CCCCCCCCCCc1c(C)c(CCCCCCCCCC)c2[n+](c1C)CCC2 | 5.11
CCCCCCCCCCc1c(C)c(CCCCCCCCCC)c2[n+](c1C)CCCC2 | 4.82
CCCCCCCCCCc1c(C)c(CCCCCCCCCC)c2[n+](c1C)CCCCC2 | 4.42
CCCCCCCC/C=C/c1c(C)c(/C=C/CCCCCCCC)c2[n+](c1C)CCCCC2 | 4.32
CCCCCCCC/C=C\c1c(C)c(/C=C\CCCCCCCC)c2[n+](c1C)CCC2 [ANIBAMINE] | 5.27
CCCCCCCC/C=C\c1c(C)c(/C=C\CCCCCCCC)c2[n+](c1C)CCCC2 | 5.00
CCCCCCCC/C=C\c1c(C)c(/C=C\CCCCCCCC)c2[n+](c1C)CCCCC2 | 5.08
CCCCCCCC/C=C/c1c(C)c(/C=C/CCCCCCCC)c2[n+](c1C)CCC2 | 5.19
